Attribute: melting point

COc1cccc(C(=O)NC2CCc3ccccc32)c1 (racemic) [Compound 52, (rac)-N-(m-Anisoyl)-1-aminoindan]: 140 °C
CCCC(=O)NC1CCc2ccccc21 (racemic) [Compound 11, (rac)-N-Butyryl-1-aminoindan]: 84 to 85 °C
CC(=O)NC1CCc2cccc(C)c21 (racemic) [Compound 20, (rac)-7-Methyl-N-acetyl-1-aminoindan]: 166 to 167 °C
O=C(CCCCC(=O)N[C@@H]1CCc2ccccc21)N[C@@H]1CCc2ccccc21 [Compound 74, N,N′-Bis-((R)-1-indanyl)adipamide]: 244 to 247 °C

[Q] Identify the reported melting point for the following entry. O=C(NC1CCc2ccccc21)c1ccc(F)cc1 (racemic) [Compound 53, (rac)-N-(4′-Fluorobenzoyl)-1-aminoindan]
[A] 109 to 110 °C

----------
Assay explanation: in vivo
Condition details: mouse, in vivo, ip
Assay metric: TD50

[Q] Please report the measured TD50 for CC(=O)NC1CCc2ccc(F)cc21 (racemic) [Compound 22, (rac)-6-Fluoro-N-acetyl-1-aminoindan]
[A] > 100 mg/kg

----------
Here the recorded melting point is given for each entry.

[Q] Provide measured melting point value, entry: O=C(N[C@@H]1CCc2ccccc21)C(F)(F)F [Compound 68, (R)-N-Trifluoroacetyl-1-aminoindan]
[A] 152 to 153 °C

[Q] Supply reported melting point belonging to this compound: CC(=O)NC1CCc2ccc(C#N)cc21 (racemic) [Compound 61, (rac)-6-Cyano-N-acetyl-1-aminoindan]
[A] 175 to 176 °C

----------
Assay metric: melting point

Below: 10 compounds and their reported melting point.
CCOC(=O)c1ccc2c(c1)C(NC(C)=O)CC2 (racemic): 146 to 147 °C
O=C(CCC(=O)N[C@@H]1CCc2ccccc21)N[C@@H]1CCc2ccccc21 [Compound 75, N,N′-Bis-((R)-1-indanyl)succinamide]: 266 to 269 °C
CC(=O)NC1CCc2ccc(F)cc21 (racemic) [Compound 22, (rac)-6-Fluoro-N-acetyl-1-aminoindan]: 139 to 141 °C
CC(C)(C)OC(=O)NCCCC(=O)NC1CCc2ccccc21 (racemic): 118 to 120 °C
O=C(NC1CCc2ccccc21)c1ccccc1 (racemic) [Compound 46, (rac)-N-Benzoyl-1-aminoindan]: 140 to 142 °C
CCCN(CCC)S(=O)(=O)c1ccc(C(=O)NC2CCc3ccccc32)cc1 (racemic): 124 to 125 °C
COc1ccc2c(c1OC)CC[C@H]2NC(C)=O [Compound 21, (R)-4,5-Dimethoxy-N-acetyl-1-aminoindan]: 175 °C
O=CNC1CCc2ccccc21 (racemic) [Compound 8, (rac)-N-Formyl-1-aminoindan]: 105 °C
CC(=O)NC1CCc2ccc([N+](=O)[O-])cc21 (stereo not shown): 179 °C
Cc1ccc(C(=O)NC2CCc3ccccc32)cc1 (racemic) [Compound 54, (rac)-N-(p-Toluoyl)-1-aminoindan]: 140 °C

[Q] Tell me melting point reported for O=C(CCCCC(=O)NC1CCc2ccccc21)NC1CCc2ccccc21 (stereo not shown) [Compound 73, N,N′-Bis-(1-indanyl)adipamide]
[A] 227 °C

[Q] Answer with reported melting point of CCCC(CCC)C(=O)NC1CCc2ccccc21 (stereo not shown)
[A] 133 to 134 °C

[Q] Give reported melting point value for COc1ccc2c(c1)C(NC(C)=O)CC2 (racemic) [Compound 26, (rac) 6-methoxy-N-acetyl-1-aminoindan]
[A] 131 to 132 °C

// provenance: patent US6528685B2
